Recorded values, source paper PMC5045942.

- Test system: CYP2B6 mRNA
- RUN DESCRIPTION: CYP2B6 mRNA induction in 5F HepaRG control cells (real-time PCR)
- Assay type: in vitro ADME, human
- ASSAY SETUP: human, 5F HepaRG control cells, 5F cells; single value given in text; data the average of two experiments; read-out: EC50 of CYP2B6 induction in 5F cells
TEST READOUT: EC50 at 48 h

Ask | // lookup EC50 at 48 h for Clc1ccc(-c2nc3sccn3c2C=NOCc2ccc(Cl)c(Cl)c2)cc1
Reply | 500 nM

###

# pEC50 per record follows
- Tested on: CYP3A4 mRNA
- RUN DESCRIPTION: CYP3A4 mRNA induction in 5F HepaRG control cells (real-time PCR)
- ASSAY SETUP: read-out: EC50, induction of CYP3A4 mRNA, 5F; 5F cells; 48 h; value of each individual experiment (two per cell)
In plain terms, pEC50 is the concentration in mol/L turned into minus its base-10 logarithm.

* O=C1NC(=O)C(c2ccccc2)(c2ccccc2)N1 | 4.70

Ask | Request body: readout pEC50, system CYP3A4 mRNA, query Clc1ccc(-c2nc3sccn3c2C=NOCc2ccc(Cl)c(Cl)c2)cc1 . Return the value.
Reply | 5.70
